# Test system: Mycobacterium tuberculosis
# ASSAY SUMMARY: Antimicrobial activity against quinolone-resistant Mycobacterium tuberculosis isolate 11
# Type: functional
MEASURED PROPERTY: MIC
I'd appreciate it if you included the unit after the number.

COc1c(N2CC[C@@H](C(C)(C)N)C2)c(F)cc2c(=O)c3c(=O)[nH]sc3n(C3CC3)c12    0.25 µg/mL
CO[C@H]1/C=C/O[C@@]2(C)Oc3c(C)c(O)c4c(O)c(c(/C=N/N5CCN(C)CC5)c(O)c4c3C2=O)NC(=O)/C(C)=C\C=C\[C@H](C)[C@H](O)[C@@H](C)[C@@H](O)[C@@H](C)[C@H](OC(C)=O)[C@@H]1C    0.03 µg/mL
COc1c(N2C[C@@H]3CCCN[C@@H]3C2)c(F)cc2c(=O)c(C(=O)O)cn(C3CC3)c12    4 µg/mL

Could you now consider this next molecule?
Query: Item NNC(=O)c1ccncc1 has what recorded MIC?
Reply: 0.03 µg/mL
